Sourced from ChEMBL document CHEMBL4138082

Recorded selectivity ratio for the following compounds
assay: Selectivity index, ratio of IC50 for human L02 cells to IC50 for human HepG2 cells; assay type: toxicity; conditions: L02 cells and HepG2 cells, read-out: Ratio IC50
Write no unit; give the number alone.

For orientation, consider the following solved cases.
C[C@H]1CCC/C=C/[C@@H]2C[C@H](OC(=O)CCC(=O)OCCOc3no[n+]([O-])c3S(=O)(=O)c3ccccc3)C[C@H]2[C@H](OC(=O)CCC(=O)OCCOc2no[n+]([O-])c2S(=O)(=O)c2ccccc2)/C=C/C(=O)O1; 12
C[C@H]1CCC/C=C/[C@@H]2C[C@H](OC(=O)CCCC(=O)OCCOc3no[n+]([O-])c3S(=O)(=O)c3ccccc3)C[C@H]2[C@H](OC(=O)CCCC(=O)OCCOc2no[n+]([O-])c2S(=O)(=O)c2ccccc2)/C=C/C(=O)O1; 33
C[C@H]1CCC/C=C/[C@@H]2C[C@H](OC(=O)c3ccccc3C(=O)OCCOc3no[n+]([O-])c3S(=O)(=O)c3ccccc3)C[C@H]2[C@H](O)/C=C/C(=O)O1; 11

Query: What measured selectivity ratio goes with `C[C@H]1CCC/C=C/[C@@H]2C[C@H](OC(=O)c3ccccc3C(=O)OCCOc3no[n+]([O-])c3S(=O)(=O)c3ccccc3)C[C@H]2[C@H](OC(=O)c2ccccc2C(=O)OCCOc2no[n+]([O-])c2S(=O)(=O)c2ccccc2)/C=C/C(=O)O1` ?
Response: 11

###

assay: Drug metabolism in human L02 cells assessed as NO release by measuring nitrite formation at 100 uM after 1 hr by Griess assay; format: ADME, cell-based; conditions: l02, 1 h
Recorded Drug metabolism for the following molecules
Express the reported value numerically, then name its unit.

C[C@H]1CCC/C=C/[C@@H]2C[C@H](OC(=O)CCC(=O)OCCOc3no[n+]([O-])c3S(=O)(=O)c3ccccc3)C[C@H]2[C@H](OC(=O)CCC(=O)OCCOc2no[n+]([O-])c2S(=O)(=O)c2ccccc2)/C=C/C(=O)O1; 19.5 µM
C[C@H]1CCC/C=C/[C@@H]2C[C@H](OC(=O)CCCC(=O)OCCOc3no[n+]([O-])c3S(=O)(=O)c3ccccc3)C[C@H]2[C@H](O)/C=C/C(=O)O1; 14.6 µM
C[C@H]1CCC/C=C/[C@@H]2C[C@H](O)C[C@H]2[C@H](OC(=O)CCCC(=O)OCCOc2no[n+]([O-])c2S(=O)(=O)c2ccccc2)/C=C/C(=O)O1; 13.9 µM
C[C@H]1CCC/C=C/[C@@H]2C[C@H](OC(=O)c3ccccc3C(=O)OCCOc3no[n+]([O-])c3S(=O)(=O)c3ccccc3)C[C@H]2[C@H](OC(=O)c2ccccc2C(=O)OCCOc2no[n+]([O-])c2S(=O)(=O)c2ccccc2)/C=C/C(=O)O1; 20.6 µM

Query: What measured Drug metabolism goes with `C[C@H]1CCC/C=C/[C@@H]2C[C@H](OC(=O)CCCC(=O)OCCOc3no[n+]([O-])c3S(=O)(=O)c3ccccc3)C[C@H]2[C@H](OC(=O)CCCC(=O)OCCOc2no[n+]([O-])c2S(=O)(=O)c2ccccc2)/C=C/C(=O)O1` ?
Response: 22.4 µM

Query: What measured Drug metabolism goes with `C[C@H]1CCC/C=C/[C@@H]2C[C@H](OC(=O)CCCC(=O)OCCCOc3no[n+]([O-])c3S(=O)(=O)c3ccccc3)C[C@H]2[C@H](OC(=O)CCCC(=O)OCCCOc2no[n+]([O-])c2S(=O)(=O)c2ccccc2)/C=C/C(=O)O1` ?
Response: 23.4 µM
